Hey, just so you know, these numbers are from ChEMBL document CHEMBL1201862.

System: NCI-H226
PROTOCOL_DESCRIPTION: NCI tumour cell line growth inhibition, 48 h
The source made the active and inactive calls. Rule as the data show it: active = GI50 up to about 1.1 µM and inactive = higher.
METRIC: GI50

Guide cases for GI50, answers given:
Cc1cc(O)c(C=O)c2c1C(=O)Oc1c(CO)c(O)c3c(c1O2)C(O)OC3=O (stereo unspecified) [SLAZINIC ACID]	38.8 µM (inactive)
CCOC(=O)c1cc(-c2ccc(OC)c(OC)c2)c[nH]1	> 10 µM (inactive)

Each of the following entries comes with a recorded value; kindly state GI50 for each.
1. CCOC(=O)C1=C(C)N(Cc2ccccc2)C2(O)C(OC)CC(=O)C3C(=O)N(c4ccccc4)C(=O)C132 (stereo unspecified)
2. Nc1nc(SCCc2ccccc2)c2nc[nH]c2n1
3. O=C1/C(=C/c2ccc3c(c2)OCO3)SC2C=Nc3ccccc3N12 (stereo unspecified)
4. COc1cc([C@@H]2c3cc4c(cc3[C@H](OC3OC5COC(c6ccco6)OC5C(O)C3O)C3COC(=O)[C@@H]32)OCO4)cc(OC)c1OC (stereo partly specified)
5. COC(=O)CCCC(=O)O
6. CN1CCN(c2cc(-c3cc4ccccc4o3)oc(=O)c2C#N)CC1

1. 15.1 µM (inactive)
2. 61.9 µM (inactive)
3. > 100 µM (inactive)
4. 4.17 µM (inactive)
5. > 100 µM (inactive)
6. 14.2 µM (inactive)

Each of the following entries comes with a recorded value; kindly state GI50 for each.
1. C1CC2=C(C1)[Se]C(=C1Sc3nsnc3S1)[Se]2
2. CN(C)c1nc(N(C)C)nc(N(C)C)n1 [ALTRETAMINE]
3. Cc1[nH]n(-c2ncc(C#N)c(=O)[nH]2)c(=O)c1CCO

1: > 100 µM (inactive); 2: > 150 µM (inactive); 3: > 100 µM (inactive)
